// provenance: paper PMC10820444

Assay info: Cytotoxicity against non-tumorigenic Vero cell line
Assay type: cell-based
Conditions used: African green monkey, Vero cells (non-tumorigenic), read-out: IC50 Vero (cytotoxic activity)
Please provide measured pIC50 for the entries that follow.
In textbook form, pIC50 equals minus log to base ten of the concentration in mol/L.

Note to self: pIC50 recorded for CC(=O)Nc1ccc(-c2nc(C(=O)NN=C3C(=O)Nc4ccccc43)nn2-c2ccc(Cl)cc2)cc1 [11g] was 4.97

Note to self: pIC50 recorded for COc1ccc2c(c1)C(=NNC(=O)c1nc(-c3ccc(NC(C)=O)cc3)n(-c3ccc(F)cc3)n1)C(=O)N2 [11e] was 5.08

Note to self: pIC50 recorded for COc1ccc2c(c1)C(=NNC(=O)c1nc(-c3ccc(NC(C)=O)cc3)n(-c3ccc(Cl)cc3)n1)C(=O)N2 [11k] was 4.88

Note to self: pIC50 recorded for CC(=O)Nc1ccc(-c2nc(C(=O)NN=C3C(=O)Nc4ccc(Br)cc43)nn2-c2ccc(F)cc2)cc1 [11d] was 4.93

Note to self: pIC50 recorded for CC(=O)Nc1ccc(-c2nc(C(=O)NN=C3C(=O)N(C)c4ccccc43)nn2-c2ccc(Cl)cc2)cc1 [14c] was 5.10

----------
Tested on: HepG2 cell line
Assay info: MTT anti-proliferative assay, HepG2
Format: cell-based, human
Conditions used: 48 h exposure, mean ± S.D., 3 separate experiments
Measurement type: IC50 (µM)
Number in µM, nothing else.

Note to self: IC50 recorded for COc1cccc2c1C(=O)c1c(O)c3c(c(O)c1C2=O)C[C@@](O)(C(=O)CO)C[C@@H]3O[C@H]1C[C@H](N)[C@H](O)[C@H](C)O1 [Dox., reference compound] was 0.43

----------
System: Vero cell line
Assay info: Cytotoxicity against non-tumorigenic Vero cell line
Type: cell-based
Conditions used: read-out: IC50 Vero (cytotoxic activity)
Measurement type: IC50
Note to self: number, then unit, no commentary.

Note to self: IC50 recorded for CC(=O)Nc1ccc(-c2nc(C(=O)NN=C3C(=O)Nc4ccc(Br)cc43)nn2-c2ccc(F)cc2)cc1 [11d] was 8.35 µM

Note to self: IC50 recorded for COc1ccc2c(c1)C(=NNC(=O)c1nc(-c3ccc(NC(C)=O)cc3)n(-c3ccc(F)cc3)n1)C(=O)N2 [11e] was 11.7 µM

----------
Tested on: PANC1 cell line
Assay info: MTT anti-proliferative assay, PANC1
Type: cell-based, human
Conditions used: Homo sapiens, PANC-1; MTT, 48 h exposure; mean ± S.D., 3 separate experiments
Flag rule - IC50 less than 800 nM flags yes; the remaining entries get no.

query: Take the compound COc1ccc2c(c1)C(=NNC(=O)c1nc(-c3ccc(NC(C)=O)cc3)n(-c3ccc(Cl)cc3)n1)C(=O)N2 [11k] and say whether its IC50 is less than 800 nM.
result: no

query: Take the compound CC(=O)Nc1ccc(-c2nc(C(=O)NN=C3C(=O)Nc4ccc(Br)cc43)nn2-c2ccc(F)cc2)cc1 [11d] and say whether its IC50 is less than 800 nM.
result: no

query: Take the compound CC(=O)Nc1ccc(-c2nc(C(=O)NN=C3C(=O)Nc4ccc(Cl)cc43)nn2-c2ccc(F)cc2)cc1 [11c] and say whether its IC50 is less than 800 nM.
result: no

query: Take the compound CC(=O)Nc1ccc(-c2nc(C(=O)NN=C3C(=O)Nc4ccccc43)nn2-c2ccc(Cl)cc2)cc1 [11g] and say whether its IC50 is less than 800 nM.
result: yes

query: Take the compound CC(=O)Nc1ccc(-c2nc(C(=O)NN=C3C(=O)Nc4ccc(Br)cc43)nn2-c2ccc(Cl)cc2)cc1 [11j] and say whether its IC50 is less than 800 nM.
result: no

query: Take the compound CC(=O)Nc1ccc(-c2nc(C(=O)NN=C3C(=O)Nc4ccc(F)cc43)nn2-c2ccc(Cl)cc2)cc1 [11h] and say whether its IC50 is less than 800 nM.
result: yes

query: Take the compound CC(=O)Nc1ccc(-c2nc(C(=O)NN=C3C(=O)Nc4ccc(Cl)cc43)nn2-c2ccc(Cl)cc2)cc1 [11i] and say whether its IC50 is less than 800 nM.
result: no

query: Take the compound COc1ccc2c(c1)C(=NNC(=O)c1nc(-c3ccc(NC(C)=O)cc3)n(-c3ccc(F)cc3)n1)C(=O)N2 [11e] and say whether its IC50 is less than 800 nM.
result: no

query: Take the compound CC(=O)Nc1ccc(-c2nc(C(=O)NN=C3C(=O)N(Cc4ccccc4)c4ccc(Br)cc43)nn2-c2ccc(F)cc2)cc1 [14b] and say whether its IC50 is less than 800 nM.
result: yes

query: Take the compound CC(=O)Nc1ccc(-c2nc(C(=O)NN=C3C(=O)Nc4ccc([N+](=O)[O-])cc43)nn2-c2ccc(Cl)cc2)cc1 [11l] and say whether its IC50 is less than 800 nM.
result: yes

query: Take the compound CC(=O)Nc1ccc(-c2nc(C(=O)NN=C3C(=O)N(C)c4ccccc43)nn2-c2ccc(F)cc2)cc1 [14a] and say whether its IC50 is less than 800 nM.
result: no

query: Take the compound CC(=O)Nc1ccc(-c2nc(C(=O)NN=C3C(=O)Nc4ccc([N+](=O)[O-])cc43)nn2-c2ccc(F)cc2)cc1 [11f] and say whether its IC50 is less than 800 nM.
result: yes

query: Take the compound CC(=O)Nc1ccc(-c2nc(C(=O)NN=C3C(=O)Nc4ccccc43)nn2-c2ccc(F)cc2)cc1 [11a] and say whether its IC50 is less than 800 nM.
result: no

query: Take the compound CC(=O)Nc1ccc(-c2nc(C(=O)NN=C3C(=O)N(Cc4ccccc4)c4ccc(Br)cc43)nn2-c2ccc(Cl)cc2)cc1 [14d] and say whether its IC50 is less than 800 nM.
result: yes

query: Take the compound CC(=O)Nc1ccc(-c2nc(C(=O)NN=C3C(=O)Nc4ccc(F)cc43)nn2-c2ccc(F)cc2)cc1 [11b] and say whether its IC50 is less than 800 nM.
result: no

query: Take the compound CC(=O)Nc1ccc(-c2nc(C(=O)NN=C3C(=O)N(C)c4ccccc43)nn2-c2ccc(Cl)cc2)cc1 [14c] and say whether its IC50 is less than 800 nM.
result: yes
